The values you see were collected from ChEMBL document CHEMBL3507680.

# Procedure Summary: Human HepG2 cell viability assay in 384 well format
# Type: toxicity, cell-based
# Parameters: dose 125 nL, time 70.5 hour; concentration not given beside the values
# Test Conditions: HepG2 cells, read-out: Inhibition
cytotoxicity at 70.5 h listing for selected compounds.
Give your result in % as a bare value.

Cc1nc(-c2cc(Cl)c3c(c2)CC(CN)O3)c[nH]1 (stereo unspecified)    0.0695

Please examine the following record next.
// sample Cc1[nH]ccc1C(=O)N1CCC2(CC1)c1nc[nH]c1CCN2CC(C)C , its cytotoxicity at 70.5 h was -8.19

* * *

# Procedure Summary: Human HepG2 cell viability assay in 384 well format
# Format: toxicity, cell-based
# Parameters: dose 125 nL, time 70.5 hour; concentration not given beside the values
# Test Conditions: HepG2 cells, read-out: Inhibition
Reported Property: cytotoxicity at 70.5 h
Show the value, then the unit it is measured in.

COc1ncccc1CNC(=O)c1cccnc1O    -8.53%
O=C(c1ccco1)N1CCCC2(CN(Cc3cccs3)CCO2)C1 (configuration not stated)    1.5%
CC(C)c1cc(N2CCC(CCC(=O)NC3CC3)CC2)n2nccc2n1    -10.7%
Cc1cc2c(=O)n3c(nc2s1)CCN(Cc1[nH]cnc1C)CC3    -9.2%
COc1ccc(-n2cnnc2SCC(=O)N(C)C(C)C)cn1    -6.69%
O=S(=O)(NCCN1CC=CC1)c1cncc(Cl)c1    -0.531%
Cc1n[nH]c(C)c1C1CCCN1C(=O)Cc1cccc(F)c1 (configuration not stated)    -19.6%
O=C(NCCCn1cccn1)c1csc2c1CCCC2    -11.3%
N#Cc1ncn(CC(=O)N2CCCC2c2cccs2)n1 (configuration not stated)    22.9%
CN(CCn1ccc2ccccc21)C(=O)Cc1nnn[nH]1    17.9%

Lookup result for CCC1(C(=O)O)CCCN(C(=O)c2ccc(O)c(Cl)c2)C1 (configuration not stated) ; measured cytotoxicity at 70.5 h: -4.39%

Memo: CC(C(=O)N1CCc2sccc2C1)N1CCCN(C2CC2)CC1 (configuration not stated) , reported cytotoxicity at 70.5 h: -10.7%

* * *

# Procedure Summary: Human HepG2 cell viability assay in 384 well format
# Format: toxicity, cell-based
# Parameters: dose 125 nL, time 70.5 hour; concentration not given beside the values
# Test Conditions: HepG2 cells, read-out: Inhibition
Measured cytotoxicity at 70.5 h, listed per entry for reference.
Unit % implied. Number only.

Cc1cc(S(C)(=O)=O)c(C)c(S(=O)(=O)NC2CCCC2)c1    -8.42
O=C(O)C1(Cc2cc(-c3ccc(F)cc3)no2)CCOCC1    8.42
CCn1ncnc1CN1CCc2[nH]cnc2C1Cc1ccccc1 (stereo unspecified)    -5.67

Entry under test: Cc1nnc(CN(Cc2ccc(Cl)c(Cl)c2)C2CC2)o1 . Its cytotoxicity at 70.5 h was -3.07

Per the record, Cn1ncc(C(=O)N2CCN(CCS(C)(=O)=O)CC2)c1Cl has cytotoxicity at 70.5 h of 18.4

* * *

# Procedure Summary: Human HepG2 cell viability assay in 384 well format
# Format: toxicity, cell-based
# Design: dose 125 nL, time 70.5 hour; concentration not given beside the values
# Test Conditions: HepG2 cells, read-out: Inhibition
Reported Property: cytotoxicity at 70.5 h (%)
Answer with a number only, understood to be in %.

Here are 5 compounds together with their reported answers.
c1cc(CCN2CCN(c3ccc4nncn4n3)CC2)ccn1    -11.9
COc1ccc(CC(=O)N2CC[C@@H]3NC(=O)CC[C@@H]32)cc1    3.62
c1ccc(CN2CCCC3(CCN(Cc4cccs4)C3)C2)nc1 (stereo unspecified)    -7.54
COCC(=O)N1CCC2(COCc3cnc(N4CCOCC4)nc32)C1 (stereo unspecified)    6.48
Cc1noc(C(C)N2CCN(c3ncnc4sccc34)CC2)n1 (stereo unspecified)    -7.54

The reported cytotoxicity at 70.5 h of the compound CCC(C)(C)NC(=O)c1ccc(-c2ccco2)[nH]c1=O was 0.821

Briefly, cytotoxicity at 70.5 h measured for CC(C)CCN(C)Cc1ccccc1-c1nc(C(C)C)cc(=O)[nH]1 : 0.496

Per the records, this compound ( CC(C)(C)c1n[nH]cc1CNCC1CCN(C2CC2)C1 (stereo unspecified) ) has cytotoxicity at 70.5 h equal to -6.24

Lab note: measured cytotoxicity at 70.5 h of CCc1cccc2cc(CN)c(=O)[nH]c12 was -10

CCc1noc(C2CCCCN2C(=O)c2ccn(C3CCCC3)n2)n1 (stereo unspecified) has a reported cytotoxicity at 70.5 h of 31

Consider CC(C)(C)OC(=O)N[C@@H]1C[C@@H](O)CN(C(=O)c2ccc(F)cc2)C[C@H]1O . Its measured cytotoxicity at 70.5 h is -2.5
